Origin of values: patent US20110104055A1

- test-target: Aβ 1-42 fibrils (Homo sapiens)
- Construct: purchased Bachem Inc
- Sequence (P05067 672-713): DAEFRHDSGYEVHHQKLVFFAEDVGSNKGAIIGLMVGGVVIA
- test-method-notes: Congo red binding assay, Aβ 1-42 fibrils (Example 11)
- Format: biochemical
- test-parameters: Aβ:test compound wt/wt ratio 1:1; 3-day incubation
readout-label: % Inhibition Aβ (result ± S.D.), Congo red binding (%)

[[record]]
structure_smiles = "O=C(Nc1ccc(O)c(O)c1F)c1ccc(O)c(O)c1"
obs_value = 68.0

[[record]]
structure_smiles = "O=C(Nc1cc(O)c(O)c(F)c1)c1ccc(O)c(O)c1"
obs_value = 71.0

[[record]]
structure_smiles = "O=C(Nc1cc(O)c(O)cc1F)c1ccc(O)c(O)c1"
obs_value = 69.9

